Entries and their EC50
- EXPERIMENTAL SYSTEM: Melanocyte-stimulating hormone receptor (Mus musculus)
- Sequence (Q01727 whole entry): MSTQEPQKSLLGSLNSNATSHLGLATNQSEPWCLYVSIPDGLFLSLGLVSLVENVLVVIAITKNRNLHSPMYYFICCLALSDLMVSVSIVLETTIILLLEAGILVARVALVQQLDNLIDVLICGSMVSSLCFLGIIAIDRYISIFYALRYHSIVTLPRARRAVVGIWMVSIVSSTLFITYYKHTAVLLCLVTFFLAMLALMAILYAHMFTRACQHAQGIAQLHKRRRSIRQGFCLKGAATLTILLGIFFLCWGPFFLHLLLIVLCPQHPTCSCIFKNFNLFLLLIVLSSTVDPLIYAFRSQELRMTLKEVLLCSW
- RUN DESCRIPTION: Agonist activity at mouse MC1R expressed in HEK293 cells by beta-galactosidase assay
- Type: functional, cell-based

The examples below pair each entry with its known result.
Given "CC(C)C[C@H](NC(=O)[C@H](CCCCN)NC(=O)[C@H](CCCNC(=N)N)NC(=O)[C@H](C)NC(=O)[C@H](Cc1ccc(O)cc1)NC(=O)[C@@H]1CSSC[C@H](NC(=O)[C@H](Cc2ccc(O)cc2)NC(=O)[C@H](C)NC(=O)[C@@H](NC(=O)[C@H](C)NC(=O)[C@H](C)NC(=O)[C@@H]2CCCN2C(=O)[C@@H](N)CC(=O)O)[C@@H](C)O)C(=O)N[C@@H](CCCNC(=N)N)C(=O)N[C@H](Cc2ccccc2)C(=O)N[C@@H](Cc2ccccc2)C(=O)N[C@@H](CC(N)=O)C(=O)N[C@@H](C)C(=O)N[C@@H](Cc2ccccc2)C(=O)N1)C(=O)O" , state its recorded EC50. 0.093 µM (agonist)

"CC(C)C[C@H](NC(=O)[C@H](CCCCN)NC(=O)[C@H](CCCNC(=N)N)NC(=O)[C@H](C)NC(=O)[C@H](Cc1ccc(O)cc1)NC(=O)[C@@H]1CSSC[C@H](NC(=O)[C@H](Cc2ccc(O)cc2)NC(=O)[C@H](C)NC(=O)[C@@H](NC(=O)[C@H](C)NC(=O)[C@H](C)NC(=O)[C@@H]2CCCN2C(=O)[C@@H](N)CC(=O)O)[C@@H](C)O)C(=O)N[C@H](CCCNC(=N)N)C(=O)N[C@H](Cc2ccccc2)C(=O)N[C@H](Cc2ccccc2)C(=O)N[C@@H](CC(N)=O)C(=O)N[C@@H](C)C(=O)N[C@@H](Cc2ccccc2)C(=O)N1)C(=O)O" ? 3.75 µM (agonist)

What would you report for "CC(C)C[C@H](NC(=O)[C@H](CCCCN)NC(=O)[C@H](CCCNC(=N)N)NC(=O)[C@H](C)NC(=O)[C@H](Cc1ccc(O)cc1)NC(=O)[C@@H]1CSSC[C@H](NC(=O)[C@H](Cc2ccc(O)cc2)NC(=O)[C@H](C)NC(=O)[C@@H](NC(=O)[C@H](C)NC(=O)[C@H](C)NC(=O)[C@@H]2CCCN2C(=O)[C@@H](N)CC(=O)O)[C@@H](C)O)C(=O)N[C@@H](CCCNC(=N)N)C(=O)N[C@H](Cc2ccccc2)C(=O)N[C@H](Cc2ccccc2)C(=O)N[C@@H](CC(N)=O)C(=O)N[C@@H](C)C(=O)N[C@@H](Cc2ccccc2)C(=O)N1)C(=O)O" ? 0.064 µM (agonist)

Consider next the compound "CC(C)C[C@H](NC(=O)[C@H](CCCCN)NC(=O)[C@H](CCCNC(=N)N)NC(=O)[C@H](C)NC(=O)[C@H](Cc1ccc(O)cc1)NC(=O)[C@@H]1CSSC[C@H](NC(=O)[C@H](Cc2ccc(O)cc2)NC(=O)[C@H](C)NC(=O)[C@@H](NC(=O)[C@H](C)NC(=O)[C@H](C)NC(=O)[C@@H]2CCCN2C(=O)[C@@H](N)CC(=O)O)[C@@H](C)O)C(=O)N[C@H](CCCNC(=N)N)C(=O)N[C@@H](Cc2ccccc2)C(=O)N[C@H](Cc2ccccc2)C(=O)N[C@@H](CC(N)=O)C(=O)N[C@@H](C)C(=O)N[C@@H](Cc2ccccc2)C(=O)N1)C(=O)O" in the same way. 5.27 µM (agonist)

New cases:
Would you mind telling me what EC50 value was observed for "CC(C)C[C@H](NC(=O)[C@H](CCCCN)NC(=O)[C@H](CCCNC(=N)N)NC(=O)[C@H](C)NC(=O)[C@H](Cc1ccc(O)cc1)NC(=O)[C@@H]1CSSC[C@H](NC(=O)[C@H](Cc2ccc(O)cc2)NC(=O)[C@H](C)NC(=O)[C@@H](NC(=O)[C@H](C)NC(=O)[C@H](C)NC(=O)[C@@H]2CCCN2C(=O)[C@@H](N)CC(=O)O)[C@@H](C)O)C(=O)N[C@H](CCCNC(=N)N)C(=O)N[C@H](Cc2ccccc2)C(=O)N[C@@H](Cc2ccccc2)C(=O)N[C@@H](CC(N)=O)C(=O)N[C@@H](C)C(=O)N[C@@H](Cc2ccccc2)C(=O)N1)C(=O)O" ? 1.75 µM (agonist)
